Tested on: SK-OV-3 ovarian
experiment notes: NCI-60 one-dose screen, 48 h (100 = growth as untreated, 0 = no growth, -100 = all killed)
run conditions: 10 µM
About 83,000 compounds went through this panel and 20% of them were active in at least one assay; those are over-represented in the sample as a whole. The source made the active and inactive calls. Rule for the calls: active = growth percent below 10; inactive = the rest.
recorded metric: growth

## Input Hi! What's the reported growth for `O=C(Nc1ccc(OCc2nnc(-c3ccc(Cl)cc3)o2)c(F)c1)Nc1ccc(Cl)c(C(F)(F)F)c1` on SK-OV-3 ovarian?
## Output 35.2% (inactive)

## Input Hello, I am looking for reported growth with SK-OV-3 ovarian for `COc1cc(/C=C/c2cc(/C=C/c3ccc(O)c(OC)c3)[nH]c(=O)n2)ccc1O` . Could you help?
## Output 71.6% (inactive)

## Input Fill in the recorded growth for this compound, with SK-OV-3 ovarian as test system: `CN(C)CCCN1c2ccccc2CCc2ccc(Cl)cc21`
## Output 82.4% (inactive)

## Input Tell me reported growth for `COC(=O)CC[C@@H](C)[C@H]1CC[C@H]2[C@@H]3CC[C@@H]4C[C@H](O)CC[C@]4(C)[C@H]3C[C@H](O)[C@]12C` , tested with SK-OV-3 ovarian.
## Output 111% (inactive)

## Input For the record CC(CN(C)C)Oc1ccccc1NC1=C(Cl)C(=O)C(Nc2ccccc2OC(C)CN(C)C)=C(Cl)C1=O (stereo not drawn) , what value of growth is listed for SK-OV-3 ovarian?
## Output 58.9% (inactive)

## Input Form: Entry = `Cc1ccc(C)c(COc2cc(NC(=O)c3ccc4c(c3)OCO4)ccc2N(C)S(C)(=O)=O)c1` | System = SK-OV-3 ovarian | growth = ____
## Output -21% (active)

## Input What is its growth for SK-OV-3 ovarian? Entry: `Nc1nc(-c2cccnc2)nc2c1sc(=S)n2-c1ccccc1`
## Output 103% (inactive)

## Input Observed growth on SK-OV-3 ovarian for `CCOC(=O)N/N=C/c1ccc(OC)c(OC)c1` , please.
## Output 114% (inactive)

## Input Please state recorded growth (tested on SK-OV-3 ovarian) of `NS(=O)(=O)Oc1ccc2c(ccn2C(=O)C23CC4CC(CC(C4)C2)C3)c1`
## Output 121% (inactive)

## Input API: value(readout= growth, system= SK-OV-3 ovarian, query= `O=C(CI)OCC(COC(=O)CI)OC(=O)CI` )
## Output 119% (inactive)

## Input State its growth on SK-OV-3 ovarian: `CCn1c(SCc2ccc(C)cc2)nnc1-c1nn(-c2ccc(Cl)cc2Cl)c(-c2ccc(Cl)cc2)c1C`
## Output -7.12% (active)

## Input Request - read-out growth | tested on SK-OV-3 ovarian | compound `O=C(CSc1nnc(-c2ccc(Cl)cc2)o1)Nc1ccc(C(=O)/C=C/c2ccc(Cl)cc2)cc1`
## Output 90.6% (inactive)

## Input Param readout= growth; system= SK-OV-3 ovarian; entry= `N#Cc1c(-c2ccc(Cl)cc2)csc1NC(=O)Nc1ccc(Cl)c(C(F)(F)F)c1` ; returns value.
## Output 19.9% (inactive)

## Input Fill in the recorded growth for this compound, with SK-OV-3 ovarian as test system: `CCN1CCN(CCC(=O)Nc2cccc(-n3cc(-c4ccncc4)c(-c4ccc(Cl)c(OC)c4)n3)c2)CC1`
## Output 39.2% (inactive)

## Input Query the reported growth for SK-OV-3 ovarian; item: `O=C1NC(=O)c2c(CCCSc3nc4ccccc4c(=O)n3CCc3ccccc3)cccc21`
## Output 86.2% (inactive)

## Input I'm curious: which growth was measured for `O=C(N/N=C/c1c(Cl)cccc1Cl)c1ccccc1Nc1cccc(C(F)(F)F)c1` tested on SK-OV-3 ovarian?
## Output 107% (inactive)

## Input Recorded growth for CC(C)=CCC/C(C)=C/CC/C(C)=C/CC/C=C(\C)CC/C=C(\C)CCC(=O)Nc1ccn(C2OC(CO)C(O)C2(F)F)c(=O)n1 (stereo not drawn) with SK-OV-3 ovarian, please?
## Output 31% (inactive)

## Input Give growth (SK-OV-3 ovarian) of the following compound: COc1ccc(C2CC(c3cc(OC)c(OC)c(OC)c3)=NN2)cc1 (stereo not drawn)
## Output 81.5% (inactive)

## Input State its growth on SK-OV-3 ovarian: `CC(C)c1cc(N=O)cc(C(C)C)c1O`
## Output 109% (inactive)

## Input What growth appears in the records for this compound with SK-OV-3 ovarian? `CNS(=O)(=O)Oc1ccc(-c2sc3cc(OS(=O)(=O)NC)ccc3c2C(=O)c2ccc(OCCN3CCCCC3)cc2)cc1`
## Output 76.1% (inactive)

## Input Record lookup: for SK-OV-3 ovarian, what growth belongs to COc1ccc2c(c1)C(CC(=O)NN)CCC2 (stereo not drawn) ?
## Output 115% (inactive)

## Input Notebook entry, SK-OV-3 ovarian assay: growth of `Oc1ccc(/C=N/N=C2c3ccccc3-c3ccccc32)c(O)c1` = ?
## Output 84.7% (inactive)

## Input Request: growth, test system SK-OV-3 ovarian, entry `COc1cc(/C=C/c2cc(/C=C/c3ccc(O)c(OC)c3)n(C(=O)Nc3ccc(C)cc3)n2)ccc1O`
## Output -29.1% (active)

## Input Give the reported growth for CCCCN1C(=O)CC(SC2CC(=O)N(CCCC)C2=O)C1=O (stereo not drawn) (system: SK-OV-3 ovarian).
## Output 111% (inactive)

## Input Checklist item: growth tested on SK-OV-3 ovarian, entry `Cc1cc(SC#N)cc(C(C)(C)C)c1O` , value?
## Output 93.1% (inactive)

## Input Query for SK-OV-3 ovarian: what growth does the record show for CCN(CC)c1ccc(/C=C2\SC(=O)C(Nc3nnc(-c4cccnc4SCc4ccccc4)o3)C2=O)cc1 (stereo not drawn) ?
## Output 15.6% (inactive)

## Input Tell me reported growth for `O=C1c2ccccc2C(=O)N1CCCCNc1ccccc1` , tested with SK-OV-3 ovarian.
## Output 113% (inactive)

## Input # get_value(readout= growth, system= SK-OV-3 ovarian) for `O=C(N/N=C/c1cc([N+](=O)[O-])ccc1O)c1cccc2ccccc12`
## Output 41% (inactive)

## Input Recorded growth for CC1/C=C/C=C/C=C/C=C/C=C/C=C/C=C/C(O[C@@H]2O[C@H](C)[C@H](O)[C@@H](O)[C@@H]2N)CC(O)C(C(=O)O)C(O)CC(=O)CC(O)CC(O)CC(O)CC(=O)CCCC(=O)CC(=O)OC1C(C)CC(C)C(O)CC(=O)c1ccc(N)cc1 (stereo partly drawn) with SK-OV-3 ovarian, please?
## Output -100% (active)

## Input Record lookup: for SK-OV-3 ovarian, what growth belongs to `COc1cccc2ccc(CC(O)(c3ccccc3)c3ccccc3)nc12` ?
## Output 93.3% (inactive)

## Input Given the entry `O=C(CCCCNC(=O)c1nc(-c2ccccc2)n(-c2ccccc2)n1)NO` , what growth was observed with SK-OV-3 ovarian?
## Output 13.2% (inactive)

## Input Request: growth, test system SK-OV-3 ovarian, entry CC(=O)OC1CC2C(C)(C)CCC[C@]2(C)C2=C1C(O)=C(C(C)C)C(=O)C2=O (stereo partly drawn)
## Output 19.3% (inactive)

## Input Form field: growth recorded for `Clc1nc2ccccc2cc1Cn1nnc(Cc2ccccc2)n1` with SK-OV-3 ovarian (enter value)
## Output 57.4% (inactive)

## Input Query for SK-OV-3 ovarian: what growth does the record show for `COc1ccc(N=Nc2cc(OC)c(OC)c(OC)c2)cc1` ?
## Output 77.6% (inactive)

## Input Give growth (SK-OV-3 ovarian) of the following compound: `CN1CCc2c(sc3nc4n(-c5ccc(Cl)cc5)cnn4c(=O)c23)C1`
## Output 91.4% (inactive)

## Input Checklist item: growth tested on SK-OV-3 ovarian, entry `COc1ccc(/C(C#N)=C/c2cccc(OC)c2OC)cc1` , value?
## Output 96.2% (inactive)

## Input API: value(readout=growth, system=SK-OV-3 ovarian) for record COc1cc(C2CC(c3ccc4c(c3)OCO4)=NN2c2ccccc2)cc(OC)c1OC (stereo not drawn)
## Output 107% (inactive)

## Input Request - read-out growth | tested on SK-OV-3 ovarian | compound CC[C@@H](C(=O)[C@H](C)[C@H](O)[C@@H](C)[C@H]1O[C@H]([C@@H](CC)C(=O)N(CC)CC)CC[C@H]1C)C1O[C@]2(C=C[C@@H](O)[C@]3(CC[C@@](C)([C@H]4CC[C@](O)(CC)[C@H](C)O4)O3)O2)[C@H](C)C[C@@H]1C (stereo partly drawn)
## Output 20.8% (inactive)
